- ASSAY_NOTES: Kinetic aqueous solubility
- Type: physicochemical
- EXPERIMENTAL_CONDITIONS: phosphate buffered saline with 5% DMSO, aqueous with cosolvent or surfactant or cyclodextrin, kinetic from dmso stock; after 2 h, at 37 °C in PBS, pH 7.4, 5% DMSO; target concentration 500 μM; mean ± S.E.M, n = 3
Please go through the items and note down their solubility kinetic at 2 h.
Give bare numbers, in µM.

INSERT INTO assay_data (compound, endpoint_label, data_value) VALUES
  ('C=C1[C@H](O)[C@@]23CC[C@H]4[C@@](C)(CCC[C@@]4(C)C(=O)O)[C@@H]2CC[C@]1(O)C3', 'solubility kinetic at 2 h', 443),
  ('CC[C@H](NC[C@@]1(O)[C@H](O)[C@@]23CCC4[C@@](C)(CCC[C@@]4(C)C(=O)OC)C2CC[C@]1(O)C3)c1ccccc1 (stereo partly drawn)', 'solubility kinetic at 2 h', 89.9);

Kindly consider the entry below.
Query string: Provide only the value of recorded solubility kinetic at 2 h for COC(=O)[C@]1(C)CCC[C@@]2(C)C3CC[C@]4(O)C[C@@]3(CCC21)[C@@H](O)[C@]4(O)CN[C@@H](C)c1ccccc1 (stereo partly drawn)
Result string: 131

* * *

- System: NIH/3T3 fibroblasts
- ASSAY_NOTES: MTT assay on fibroblasts (selectivity)
- Assay type: cell-based, murine
- EXPERIMENTAL_CONDITIONS: Mus musculus, NIH3T3, 30 μM, 72 h, values <20% considered negligible, read-out: Growth inhibition (%) ± SEM, NIH/3T3
// false (0) strictly below 90% in inhibition at 30 µM; true (1) otherwise

The following molecules have reported results that may help.
INSERT INTO results (molecule, assigned_class) VALUES
  ('COC(=O)[C@]1(C)CCC[C@@]2(C)C3CC[C@]4(O)C[C@@]3(CCC21)[C@@H](O)[C@]41CO1 (stereo partly shown)', 'false (0)'),
  ('CC[C@H](NC[C@@]1(O)[C@H](O)[C@@]23CCC4[C@@](C)(CCC[C@@]4(C)C(=O)OC)C2CC[C@]1(O)C3)c1ccccc1 (stereo partly shown)', 'true (1)'),
  ('CC[C@@H](NC[C@@]1(O)[C@H](O)[C@@]23CCC4[C@@](C)(CCC[C@@]4(C)C(=O)OC)C2CC[C@]1(O)C3)c1ccccc1 (stereo partly shown)', 'true (1)'),
  ('COC(=O)[C@]1(C)CCC[C@@]2(C)C3CC[C@]4(O)C[C@@]3(CCC21)[C@@H](O)[C@]4(O)CN (stereo partly shown)', 'false (0)'),
  ('COC(=O)[C@]1(C)CCC[C@@]2(C)C3CC[C@]4(O)C[C@@]3(CCC21)[C@@H](O)[C@]41CN(Cc2ccccc2)CO1 (stereo partly shown)', 'false (0)');

Continue with the molecule presented below.
Query string: # bool: inhibition at 30 µM of COC(=O)[C@]1(C)CCC[C@@]2(C)C3CC[C@]4(O)C[C@@]3(CCC21)[C@@H](O)[C@]4(O)CN[C@H](C)c1ccccc1 (stereo partly shown) >= 90%
Result string: true (1)

* * *

- ASSAY_NOTES: Kinetic aqueous solubility
- Format: physicochemical
- EXPERIMENTAL_CONDITIONS: phosphate buffered saline with 5% DMSO, aqueous with cosolvent or surfactant or cyclodextrin, kinetic from dmso stock; after 2 h, at 37 °C in PBS, pH 7.4, 5% DMSO; target concentration 500 μM; mean ± S.E.M, n = 3
Can you tell me log10 solubility kinetic at 2 h for the items I'm about to list?
Could you please treat all values as log10 of solubility kinetic at 2 h in µM?

# annotated cases, reported log10 solubility kinetic at 2 h shown
INSERT INTO results (molecule, data_value) VALUES
  ('COC(=O)[C@]1(C)CCC[C@@]2(C)C3CC[C@]4(O)C[C@@]3(CCC21)[C@@H](O)[C@]4(O)CNCc1ccc(F)cc1 (stereo partly drawn)', 1.62),
  ('COC(=O)[C@]1(C)CCC[C@@]2(C)C3CC[C@]4(O)C[C@@]3(CCC21)[C@@H](O)[C@]4(O)CN(C)Cc1ccccc1 (stereo partly drawn)', 2.06),
  ('COC(=O)[C@]1(C)CCC[C@@]2(C)C3CC[C@]4(O)C[C@@]3(CCC21)[C@@H](O)[C@]4(O)CN[C@H](C)c1ccc2ccccc2c1 (stereo partly drawn)', 1.12);

Could you report log10 solubility kinetic at 2 h for every entry in the following list?
1. COC(=O)[C@]1(C)CCC[C@@]2(C)[C@@H]3CCC4(O)C[C@@]3(CC[C@@H]21)[C@@H](O)[C@]4(O)CN[C@H](C)c1ccc(F)cc1
2. COC(=O)[C@]1(C)CCC[C@@]2(C)C3CC[C@]4(O)C[C@@]3(CCC21)[C@@H](O)[C@]4(O)CNCc1ccc(OC)cc1 (stereo partly drawn)

Result string:
2.16
2.16

Query string: Respond only with log10 solubility kinetic at 2 h recorded for COC(=O)[C@]1(C)CCC[C@@]2(C)C3CC[C@]4(O)C[C@@]3(CCC21)[C@@H](O)[C@]4(O)CNCc1cccc2ccccc12 (stereo partly drawn)
Result string: 1.28

* * *

- Test system: A2780 cells
- ASSAY_NOTES: MTT antiproliferative assay, A2780
- Format: cell-based, human
- EXPERIMENTAL_CONDITIONS: Homo sapiens, A2780, 10 μM, 72 h, values <20% considered negligible, read-out: Growth inhibition (%) ± SEM, A2780
What inhibition at 10 µM was measured for each of the following?
Answer as a quantity: numeral, then unit.

Sample records with inhibition at 10 µM:
INSERT INTO results (compound, data_value) VALUES
  ('CC[C@H](NC[C@@]1(O)[C@H](O)[C@@]23CCC4[C@@](C)(CCC[C@@]4(C)C(=O)OC)C2CC[C@]1(O)C3)c1ccccc1 (stereo partly drawn)', '48.3%'),
  ('COC(=O)[C@]1(C)CCC[C@@]2(C)C3CC[C@]4(O)C[C@@]3(CCC21)[C@@H](O)[C@]4(O)CN[C@@H](C)c1ccc2ccccc2c1 (stereo partly drawn)', '96.6%');

Here is another compound to look at.
Query string: Check the records and state inhibition at 10 µM for COC(=O)[C@]1(C)CCC[C@@]2(C)C3CC[C@]4(O)C[C@@]3(CCC21)[C@@H](O)[C@]4(O)CN[C@H](C)c1ccccc1 (stereo partly drawn)
Result string: 52.9%

* * *

- ASSAY_NOTES: Intestinal-specific parallel artificial membrane permeability assay (PAMPA-GI)
- Format: in vitro ADME
- EXPERIMENTAL_CONDITIONS: gradient pH system (pH donor 6.5 → pH acceptor 7.4) after 4 h, at 37 °C; mean ± S.E.M, n = 3
Class key for PAMPA-GI MR (membrane retention) values: lowest (below 20%), middle (20% to below 60%), highest (60% or more)

INSERT INTO measurements (compound, assigned_class) VALUES
  ('COC(=O)[C@]1(C)CCC[C@@]2(C)C3CC[C@]4(O)C[C@@]3(CCC21)[C@@H](O)[C@]4(O)CN[C@H](C)c1ccccc1 (stereo partly drawn)', 'middle');

Query string: Class label required: COC(=O)[C@]1(C)CCC[C@@]2(C)C3CC[C@]4(O)C[C@@]3(CCC21)[C@@H](O)[C@]4(O)CNCc1ccc(OC)cc1 (stereo partly drawn)
Result string: lowest

Query string: Band for the recorded PAMPA-GI MR (membrane retention) of COC(=O)[C@]1(C)CCC[C@@]2(C)C3CC[C@]4(O)C[C@@]3(CCC21)[C@@H](O)[C@]4(O)CNCc1ccccc1 (stereo partly drawn) ?
Result string: middle

Query string: Classify this compound: COC(=O)[C@]1(C)CCC[C@@]2(C)C3CC[C@]4(O)C[C@@]3(CCC21)[C@@H](O)[C@]4(O)CNCc1cccc2ccccc12 (stereo partly drawn)
Result string: highest

* * *

- Tested on: A2780 cells
- ASSAY_NOTES: MTT antiproliferative assay, A2780
- Assay type: cell-based, human
- EXPERIMENTAL_CONDITIONS: 10 and 30 μM
ENDPOINT_LABEL: Antiproliferative effect on A2780, in words

INSERT INTO assay_data (compound, data_value) VALUES
  ('COC(=O)[C@]1(C)CCC[C@@]2(C)C3CC[C@]4(O)C[C@@]3(CCC21)[C@@H](O)[C@]4(O)CN[C@@H](C)c1ccccc1 (stereo partly shown)', 'slightly weaker action'),
  ('COC(=O)[C@]1(C)CCC[C@@]2(C)C3CC[C@]4(O)C[C@@]3(CCC21)[C@@H](O)[C@]4(O)CN[C@H](C)c1ccccc1 (stereo partly shown)', 'slightly weaker action');

* * *

For each record, write down the corresponding melting point.

INSERT INTO results (compound, endpoint_label, data_value) VALUES
  ('COC(=O)[C@]1(C)CCC[C@@]2(C)C3CC[C@]4(O)C[C@@]3(CCC21)[C@@H](O)[C@]41CN(Cc2ccccc2)CO1 (stereo partly shown) [Compound 18]', 'melting point', '123 to 125 °C'),
  ('COC(=O)[C@]1(C)CCC[C@@]2(C)C3CC[C@]4(O)C[C@@]3(CCC21)[C@@H](O)[C@]4(O)CNCc1ccc(OC)cc1 (stereo partly shown) [Compound 10]', 'melting point', '161 to 163 °C'),
  ('COC(=O)[C@]1(C)CCC[C@@]2(C)C3CC[C@]4(O)C[C@@]3(CCC21)[C@@H](O)[C@]4(O)CNCc1cccc2ccccc12 (stereo partly shown) [Compound 14]', 'melting point', '138 to 140 °C');

Would you mind listing melting point for each of the following compounds?
1. COC(=O)[C@]1(C)CCC[C@@]2(C)C3CC[C@]4(O)C[C@@]3(CCC21)[C@@H](O)[C@]4(O)CN[C@H](C)c1ccc2ccccc2c1 (stereo partly shown) [Compound 12]
2. C=C1[C@H](O)[C@@]23CCC4[C@@](C)(CCC[C@@]4(C)C(=O)OC)C2CC[C@]1(O)C3 (stereo partly shown) [Compound 3]
3. COC(=O)[C@]1(C)CCC[C@@]2(C)C3CC[C@]4(O)C[C@@]3(CCC21)[C@@H](O)[C@]4(O)CN[C@@H](C)c1ccccc1 (stereo partly shown) [Compound 8]
4. COC(=O)[C@]1(C)CCC[C@@]2(C)C3CC[C@]4(O)C[C@@]3(CCC21)[C@@H](O)[C@]4(O)CN (stereo partly shown) [Compound 17]

Result string:
93 to 95 °C
253 to 255 °C
157 to 161 °C
152 to 155 °C

// each listed compound needs a value for melting point
1. COC(=O)[C@]1(C)CCC[C@@]2(C)C3CC[C@]4(O)C[C@@]3(CCC21)[C@@H](O)[C@]4(O)CNCc1ccc(F)cc1 (stereo partly shown) [Compound 9]
2. COC(=O)[C@]1(C)CCC[C@@]2(C)C3CC[C@]4(O)C[C@@]3(CCC21)[C@@H](O)[C@]41CO1 (stereo partly shown) [Compound 4b]
3. CC[C@H](NC[C@@]1(O)[C@H](O)[C@@]23CCC4[C@@](C)(CCC[C@@]4(C)C(=O)OC)C2CC[C@]1(O)C3)c1ccccc1 (stereo partly shown) [Compound 16]

Result string:
1. 195 to 197 °C
2. 182 to 185 °C
3. 140 to 143 °C

Batch of 2 compounds: report melting point for each.
1. COC(=O)[C@]1(C)CCC[C@@]2(C)C3CC[C@]4(O)C[C@@]3(CCC21)[C@@H](O)[C@]4(O)CN[C@@H](C)c1ccc2ccccc2c1 (stereo partly shown) [Compound 13]
2. COC(=O)[C@]1(C)CCC[C@@]2(C)C3CC[C@]4(O)C[C@@]3(CCC21)[C@@H](O)[C@]4(O)CN[C@H](C)c1ccccc1 (stereo partly shown) [Compound 7]

Result string:
81 to 83 °C
84 to 87 °C

Query string: Answer with the recorded melting point for the compound listed here: COC(=O)[C@]1(C)CCC[C@@]2(C)[C@@H]3CCC4(O)C[C@@]3(CC[C@@H]21)[C@@H](O)[C@]4(O)CN[C@H](C)c1ccc(F)cc1 [Compound 11]
Result string: 63 to 67 °C
